As shown below, each of these binders has a reported pIC50 value.
- testedSystem: Mamu-B*010:01 (Chinese rhesus macaque | not stated)
- measurementDescription: radioligand binding
pIC50: −log10 of the molar value.

{"columns": ["binder", "relation", "pIC50"],
 "data": [
  ["KRVVINKDT [… (Y. enterocolitica Hsp60)]", "<", 4.70],
  ["NRAKQVIKL [… (C. trachomatis protease ATPase)]", "=", 6.97],
  ["MRDHTITLL [… (C. trachomatis NADH-ubiquinone-oxidoreductase-a-chain)]", "=", 8.10],
  ["EREQTLNQL [… (C. trachomatis ATP-dependent zinc protein)]", "<", 4.70],
  ["RRYQKSTEL [… (E. coli derived)]", "=", 6.54],
  ["DRLALLANL [… (C. trachomatis recC exodeoxyribonuclease-V g chain)]", "<", 4.70],
  ["SRHHAFCFR [… (Aggrecan precursor p667)]", "<", 4.70]
]}

The reported measurements were obtained from paper PMC3633659.
